All values here come from paper doi:10.1101/2024.08.25.609621.

target: SARS-CoV-2 NSP3 macrodomain (Mac1) (Severe acute respiratory syndrome coronavirus 2); assay: biochemical; format: binding; details: Single dose, concentration 200 μM; read-out: Average % competition
Recorded inhibition at 200 µM values for a group of molecules are listed next.
Quick note: give the figure in %, leave out the unit.

Examples from the recorded data:
molecule: CC(C)CCC(CO)Nc1ncnc2[nH]ccc12.O=C(O)C(F)(F)F (stereo not drawn)
inhibition at 200 µM / %: 38
--
molecule: OCC(Nc1ncnc2[nH]ccc12)C1CCOC1 (stereo not drawn)
inhibition at 200 µM / %: 35
--
molecule: OCC(COCc1ccccc1)Nc1ncnc2[nH]ccc12 (stereo not drawn)
inhibition at 200 µM / %: 29
--
molecule: O=C(O)C(F)(F)F.OC[C@@H](CCc1ccccc1)Nc1ncnc2[nH]ccc12
inhibition at 200 µM / %: 27

The value of inhibition at 200 µM measured for the molecule Cc1ccccc1CC(CO)Nc1ncnc2[nH]ccc12 (stereo not drawn) turned out to be 32

The value of inhibition at 200 µM measured for the molecule OCC(CC1CCCO1)Nc1ncnc2[nH]ccc12 (stereo not drawn) turned out to be 18

The value of inhibition at 200 µM measured for the molecule O=C(O)C(F)(F)F.OCC(Nc1ncnc2[nH]ccc12)C1CCCO1 (stereo not drawn) turned out to be 54

The value of inhibition at 200 µM measured for the molecule O=C(O)C(F)(F)F.O[C@H]1CCC[C@@H]1Nc1ncnc2[nH]ccc12 turned out to be 74

The value of inhibition at 200 µM measured for the molecule OCC(Nc1ncnc2[nH]ccc12)C1CCCC1 (stereo not drawn) turned out to be 68

The value of inhibition at 200 µM measured for the molecule OCC(Cc1cncs1)Nc1ncnc2[nH]ccc12 (stereo not drawn) turned out to be 28

The value of inhibition at 200 µM measured for the molecule OCC(CC1OCCO1)Nc1ncnc2[nH]ccc12 (stereo not drawn) turned out to be 11
